# MEASUREMENT TARGET: KRAS Q61H (Homo sapiens (Human), UniProt P01116+P62937, Q61H)
# Sequence (P01116-2 other isoform, or with tags, fused parts or gaps Q61H, one chain of several): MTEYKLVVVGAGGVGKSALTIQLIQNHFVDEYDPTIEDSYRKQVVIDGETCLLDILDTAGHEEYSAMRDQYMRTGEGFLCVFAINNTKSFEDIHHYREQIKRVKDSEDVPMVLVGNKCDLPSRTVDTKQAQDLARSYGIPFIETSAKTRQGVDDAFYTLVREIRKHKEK
# ASSAY INFO: Ras-Raf (BRAF RBD) disruption / FRET / MOA assay, KRAS Q61H
# Type: biochemical
# ASSAY CONDITIONS: Ras-Raf disruption/FRET/MOA assay; class symbols; read-out: KRAS Q61H FRET data IC50
PROPERTY MEASURED: IC50

// query IC50 value for entry CCn1c(-c2cccnc2[C@H](C)OC)c2c3cc(ccc31)-c1cccc(c1)C[C@H](NC(=O)[C@H](C(C)C)N1CC[C@]3(CCN(C(=O)C#C[C@H]4COCCN4C)C3)C1=O)C(=O)N1CCC[C@H](N1)C(=O)OCC(C)(C)C2 (atropisomer, axis not shown)
1000 to 10000 nM

Now look at this one.
Which IC50 is reported for this compound? C=CC(=O)N1C[C@@H]2CN(C(=O)N(C)[C@H](C(=O)N[C@H]3Cc4nc(cs4)-c4ccc5c(c4)c(c(-c4cccnc4[C@H](C)OC)n5CC)CC(C)(C)COC(=O)[C@@H]4CCCN(N4)C3=O)C(C)C)C[C@@H]2C1 (atropisomer, axis not shown)
10 to 100 nM

----------
Below, each entry is listed with its recorded pIC50.
# MEASUREMENT TARGET: K-Ras G13C (Homo sapiens (Human), UniProt P01116+P62937, G13C)
# Sequence (P01116-2 other isoform, or with tags, fused parts or gaps G13C): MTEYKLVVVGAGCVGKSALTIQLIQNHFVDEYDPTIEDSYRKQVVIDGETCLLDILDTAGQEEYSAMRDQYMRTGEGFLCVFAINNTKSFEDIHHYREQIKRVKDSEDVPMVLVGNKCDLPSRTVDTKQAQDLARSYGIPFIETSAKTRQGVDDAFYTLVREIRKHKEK
# Sequence (P62937 whole entry): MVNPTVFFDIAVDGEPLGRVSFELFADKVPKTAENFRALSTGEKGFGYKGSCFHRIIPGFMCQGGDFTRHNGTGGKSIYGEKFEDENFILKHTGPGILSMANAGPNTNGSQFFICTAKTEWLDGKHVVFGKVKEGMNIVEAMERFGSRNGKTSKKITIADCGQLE
# ASSAY INFO: Ras-Raf (BRAF RBD) disruption / FRET / MOA assay, KRAS G13C
# Type: biochemical
# ASSAY CONDITIONS: KRAS G13C; Ras-Raf disruption/FRET/MOA assay; read-out: IC50* KRAS G13C FRET data
pIC50: −log10 of the molar value.

What value of measured pIC50 is listed for CCn1c(-c2cccnc2[C@H](C)OC)c2c3cc(ccc31)-c1cccc(c1)C[C@H](NC(=O)[C@H](C(C)C)N1CC[C@@]3(CCN(C(=O)C#CC(C)(C)N(C)C)C3)C1=O)C(=O)N1CCC[C@H](N1)C(=O)OCC(C)(C)C2 (atropisomer, axis not shown) [Example A414] ?
5.00 to 6.00

Now consider a different compound.
# input compound: C=CC(=O)N1CCO[C@@H]2CN(C(=O)N(C)[C@H](C(=O)N[C@H]3Cc4nc(cs4)-c4ccc5c(c4)c(c(-c4cccnc4[C@H](C)OC)n5CC)CC(C)(C)COC(=O)[C@@H]4CCCN(N4)C3=O)C(C)C)C[C@H]21 (atropisomer, axis not shown) [Example A543] ; wanted: its pIC50
6.00 to 7.00

----------
# MEASUREMENT TARGET: KRAS G12V (Homo sapiens (Human), UniProt P01116+P62937, G12V)
# Sequence (P01116-2 other isoform, or with tags, fused parts or gaps G12V, one chain of several): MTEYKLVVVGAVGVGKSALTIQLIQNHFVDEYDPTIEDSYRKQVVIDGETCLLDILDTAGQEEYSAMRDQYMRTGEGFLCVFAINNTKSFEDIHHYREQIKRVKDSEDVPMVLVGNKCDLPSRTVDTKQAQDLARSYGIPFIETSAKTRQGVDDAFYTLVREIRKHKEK
# ASSAY INFO: Ras-Raf (BRAF RBD) disruption / FRET / MOA assay, KRAS G12V
# Type: biochemical
# ASSAY CONDITIONS: read-out: IC50* KRAS G12V FRET data
pIC50: −log10 of the molar value.
PROPERTY MEASURED: pIC50

Sample C=CC(=O)N1CCC2(CCN(C(=O)N(C)[C@H](C(=O)N[C@H]3Cc4cccc(c4)-c4ccc5c(c4)c(c(-c4cccnc4[C@H](C)OC)n5CC)CC(C)(C)COC(=O)[C@@H]4CCCN(N4)C3=O)C(C)C)CC2)C1 (atropisomer, axis not shown) [Example A554] — what was its pIC50?
6.00 to 7.00

Data request, read-out pIC50, for C=CC(=O)N1CC[C@H](C(=O)N(C)[C@H](C(=O)N[C@H]2Cc3cc(C)cc(c3)-c3ccc4c(c3)c(c(-c3cccnc3[C@H](C)OC)n4CC)CC(C)(C)COC(=O)[C@@H]3CCCN(N3)C2=O)C(C)C)C1 (atropisomer, axis not shown) [Example A498]
5.00 to 6.00

I would be grateful if you could share the reported pIC50 for C=CC(=O)N1CC(N(C)C(=O)N(C)[C@H](C(=O)N[C@H]2Cc3nc(cs3)-c3ccc4c(c3)c(c(-c3cccnc3[C@H](C)OC)n4CC(F)(F)F)CC(C)(C)COC(=O)[C@@H]3CCCN(N3)C2=O)C(C)C)C1 (atropisomer, axis not shown) [Example A711] .
6.00 to 7.00

Attention now shifts to the item below.
Give the measured pIC50 of C=CC(=O)N1CCO[C@H]2CCN(C(=O)N(C)[C@H](C(=O)N[C@H]3Cc4nc(cs4)-c4ccc5c(c4)c(c(-c4cccnc4[C@H](C)OC)n5CC)CC(C)(C)COC(=O)[C@@H]4CCCN(N4)C3=O)C(C)C)C[C@H]21 (atropisomer, axis not shown) [Example A580] .
6.00 to 7.00

----------
# MEASUREMENT TARGET: K-Ras G13C (Homo sapiens (Human), UniProt P01116+P62937, G13C)
# ASSAY INFO: Ras-Raf (BRAF RBD) disruption / FRET / MOA assay, KRAS G13C
# Format: biochemical
# ASSAY CONDITIONS: KRAS G13C; Ras-Raf disruption/FRET/MOA assay; read-out: IC50* KRAS G13C FRET data
PROPERTY MEASURED: IC50

# get_value(readout= IC50, system= K-Ras G13C (Homo sapiens (Human), UniProt P01116+P62937, G13C)) for CCn1c(-c2ccccc2CN(C)C)c2c3cc(ccc31)-c1cc(O)cc(c1)C[C@H](NC(=O)[C@H](C(C)C)N(C)C(=O)c1ncc(NC(=O)/C=C/CN(C)C)s1)C(=O)N1CCC[C@H](N1)C(=O)OCC(C)(C)C2 (atropisomer, axis not shown)
10 to 100 nM

Lab note: next compound to report on.
Any idea what IC50 came out for C=CC(=O)N1CC(C(=O)N(C)[C@H](C(=O)N[C@H]2Cc3cc(O)cc(c3)-c3ccc4c(c3)c(c(-c3cccnc3[C@H](C)OC)n4CC)CC(C)(C)COC(=O)[C@@H]3CCCN(N3)C2=O)C(C)C)C1 (atropisomer, axis not shown) on K-Ras G13C (Homo sapiens (Human), UniProt P01116+P62937, G13C)?
10 to 100 nM

----------
# MEASUREMENT TARGET: NRAS G12C (Homo sapiens (Human), UniProt P01111+P62937, G12C)
# Sequence (P01111 whole entry G12C): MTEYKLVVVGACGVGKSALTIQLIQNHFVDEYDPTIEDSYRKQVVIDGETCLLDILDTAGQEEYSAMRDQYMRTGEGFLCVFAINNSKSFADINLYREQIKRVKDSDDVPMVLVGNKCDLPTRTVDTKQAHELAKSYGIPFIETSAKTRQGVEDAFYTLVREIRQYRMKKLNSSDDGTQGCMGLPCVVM
# Sequence (P62937 whole entry): as the sequence (P62937 whole entry) above
# ASSAY INFO: Ras-Raf (BRAF RBD) disruption / FRET / MOA assay, NRAS G12C
# Format: biochemical
# ASSAY CONDITIONS: read-out: IC50* NRAS G12C FRET data
pIC50: −log10 of the molar value.
In this section we review reported pIC50 values for a set of molecules.

The examples below pair each entry with its known result.
Could you share which pIC50 value was measured for C=CC(=O)N1CC[C@H](C(=O)N(C)[C@H](C(=O)N[C@H]2CN(C)C(=O)Cc3ccc4c(c3)c(c(-c3cccnc3COC)n4CC)CC(C)(C)COC(=O)[C@@H]3CCCN(N3)C2=O)C(C)C)C1 [Example A239] ?
< 5.00

Looking for the measured pIC50 of CO[C@@H](C)c1ncccc1-c1c2c3cc(ccc3n1CC(F)(F)F)-c1csc(n1)C[C@H](NC(=O)[C@H](C(C)C)N(C)C(=O)N1CCC3(CC1)CN(C(=O)/C=C/CF)C3)C(=O)N1CCC[C@H](N1)C(=O)OCC(C)(C)C2 (atropisomer, axis not shown) [Example A602] , can you help?
7.00 to 8.00

What pIC50 value was documented for this molecule, C=CC(=O)N1CC[C@@](C#N)(C(=O)N(C)[C@H](C(=O)N[C@H]2Cc3cccc(c3)-c3ccc4c(c3)c(c(-c3cccnc3[C@H](C)OC)n4CC)CC(C)(C)COC(=O)[C@@H]3CCCN(N3)C2=O)C(C)C)C1 (atropisomer, axis not shown) [Example A444] ?
7.00 to 8.00

More entries:
Suppose we examine the molecule CCn1c(-c2cccnc2[C@H](C)OC)c2c3cc(ccc31)-c1cc(O)cc(c1)C[C@H](NC(=O)[C@H](C(C)C)N(C)C(=O)[C@H]1CCN(C(=O)C#CCN3[C@@H](C)COC[C@@H]3C)C1)C(=O)N1CCC[C@H](N1)C(=O)OCC(C)(C)C2 (atropisomer, axis not shown) [Example A244] ; what pIC50 value has been reported?
> 8.00

May I ask what pIC50 has been recorded for C=CC(=O)N1CCN(C(=O)N(C)[C@H](C(=O)N[C@H]2Cc3nc(cs3)-c3ccc4c(c3)c(c(-c3cccnc3[C@H](C)OC)n4CC)CC(C)(C)COC(=O)[C@@H]3CCCN(N3)C2=O)C(C)C)[C@H]2CC[C@H]21 (atropisomer, axis not shown) [Example A734] ?
7.00 to 8.00

For the molecule CCn1c(-c2cccnc2COC)c2c3cc(ccc31)-c1cc(O)cc(c1)C[C@H](NC(=O)[C@H](C(C)C)N(C)C(=O)[C@H]1CCN(C(=O)C#CC3(N(C)C)CC3)C1)C(=O)N1CCC[C@H](N1)C(=O)OCC(C)(C)C2 [Example A238] , what pIC50 is on record?
6.00 to 7.00

# query: pIC50 of entry CCn1c(-c2cccnc2)c2c3cc(ccc31)-c1csc(c1)C[C@H](NC(=O)[C@H](C(C)C)N(C)C(=O)[C@H]1CCN(C(=O)C#CCN3CCOCC3)C1)C(=O)N1CCC[C@H](N1)C(=O)OCC(C)(C)C2 [Example A205]
5.00 to 6.00

Record request: pIC50 value, item CCn1c(-c2cccnc2[C@H](C)OC)c2c3cc(ccc31)-c1csc(n1)C[C@H](NC(=O)[C@@H](F)COC1CN(C(=O)C#CC(C)(C)N(C)C)C1)C(=O)N1CCC[C@H](N1)C(=O)OCC(C)(C)C2 (atropisomer, axis not shown) [Example A626]
> 8.00
